Biological target: T1, PSMA Fab
T1 construct: Biotinylated and captured on neutravidin plates in the phage ELISA; also called Anti-PSMA Fab; 006 PSMA Fab
Assay: clonal phage ELISA on biotinylated PSMA Fab captured on neutravidin plates, anti-M13-HRP detection; blocking buffer alone
Where no end group is shown, it is not given here.
Measured Phage binding ELISA signal, Anti-PSMA Fab values are reported for all entries that follow.
REPORTED METRIC: Phage binding ELISA signal, Anti-PSMA Fab

[[record]]
binder = "EMKWCIPQWMCADS (cysteine pairing not given here; also: fused to phage pIII, linker and fusion site not given here, Clonal phage of the Peptide-180 library, tested as crude supernatant; not shown: pIII coat protein of the bacteriophage to which the peptide is fused) [Phage-2537]"
experimental_result = 1.16

[[record]]
binder = "EHRWCIPVWMCEKS (cysteine pairing not given here; also: fused to phage pIII, linker and fusion site not given here, Clonal phage of the Peptide-180 library, tested as crude supernatant; not shown: pIII coat protein of the bacteriophage to which the peptide is fused) [Phage-2532]"
experimental_result = 1.16

[[record]]
binder = "DLKWCFPDWMCQVG (cysteine pairing not given here; also: fused to phage pIII, linker and fusion site not given here, Clonal phage of the Peptide-180 library, tested as crude supernatant; not shown: pIII coat protein of the bacteriophage to which the peptide is fused) [Phage-2542]"
experimental_result = 1.15

[[record]]
binder = "VSPKCIPPWMCSYV (cysteine pairing not given here; also: fused to phage pIII, linker and fusion site not given here, Clonal phage of the Peptide-180 library, tested as crude supernatant; not shown: pIII coat protein of the bacteriophage to which the peptide is fused) [Phage-2536]"
experimental_result = 1.16

[[record]]
binder = "EMKWCTPEWMCIGL (cysteine pairing not given here; also: fused to phage pIII, linker and fusion site not given here, Clonal phage of the Peptide-180 library, tested as crude supernatant; not shown: pIII coat protein of the bacteriophage to which the peptide is fused) [Phage-2540]"
experimental_result = 1.15

[[record]]
binder = "EPKWCVPPWMCAYD (cysteine pairing not given here; also: fused to phage pIII, linker and fusion site not given here, Clonal phage of the Peptide-180 library, tested as crude supernatant; not shown: pIII coat protein of the bacteriophage to which the peptide is fused) [Phage-2538]"
experimental_result = 1.16

